Type: physicochemical
Conditions: PLGA NPs loaded with TS IIA, Sal B, PNS; PLGA L:G 50:50; RP-HPLC
endpoint.name: entrapment efficiency of the NPs (%)
Only the number, expressed in %, is required.

// solved cases for entrapment efficiency of the NPs follow
[
  {
    "compound": "CC(C)=CCC[C@](C)(O[C@@H]1O[C@H](CO)[C@@H](O)[C@H](O)[C@H]1O)[C@H]1CC[C@]2(C)[C@@H]1[C@H](O)C[C@@H]1[C@@]3(C)CC[C@H](O)C(C)(C)[C@@H]3[C@@H](O[C@@H]3O[C@H](CO)[C@@H](O)[C@H](O)[C@H]3O)C[C@]12C [Rg1, ginsenoside Rg1]",
    "measurement.unit": "%",
    "entrapment efficiency of the NPs": 44.98
  },
  {
    "compound": "CC(C)=CCC[C@](C)(O[C@@H]1O[C@H](CO)[C@@H](O)[C@H](O)[C@H]1O)[C@H]1CC[C@]2(C)[C@@H]1[C@H](O)C[C@@H]1[C@@]3(C)CC[C@H](O)C(C)(C)[C@@H]3[C@@H](O[C@@H]3O[C@H](CO)[C@@H](O)[C@H](O)[C@H]3O[C@@H]3OC[C@@H](O)[C@H](O)[C@H]3O)C[C@]12C [R1, notoginsenoside R1]",
    "measurement.unit": "%",
    "entrapment efficiency of the NPs": 37.87
  },
  {
    "compound": "Cc1coc2c1C(=O)C(=O)c1c-2ccc2c1CCCC2(C)C",
    "measurement.unit": "%",
    "entrapment efficiency of the NPs": 91.81
  }
]

Recorded entrapment efficiency of the NPs for CC(C)=CCC[C@](C)(O[C@@H]1O[C@H](CO[C@@H]2O[C@H](CO)[C@@H](O)[C@H](O)[C@H]2O)[C@@H](O)[C@H](O)[C@H]1O)[C@H]1CC[C@]2(C)[C@@H]1[C@H](O)C[C@@H]1[C@@]3(C)CC[C@H](O[C@@H]4O[C@H](CO)[C@@H](O)[C@H](O)[C@H]4O[C@@H]4O[C@H](CO)[C@@H](O)[C@H](O)[C@H]4O)C(C)(C)[C@@H]3CC[C@]12C [Rb1, ginsenoside Rb1] , please? 93.56

* * *

Test: Maximum solubility in mixed solvents
Assay type: physicochemical
Conditions: mixed solvents (ethanol/glycerol/PEG 400 = 2:1:2), organic solvent or mixture
endpoint.name: solubility (µg/mL)
Only the number, expressed in µg/mL, is required.

Recorded solubility for Cc1coc2c1C(=O)C(=O)c1c-2ccc2c1CCCC2(C)C , please? 1830

* * *

Assay: In vitro release of TS IIA, Sal B and PNS from PLGA NPs and of free drugs
Assay type: physicochemical
Details: PLGA NPs loaded with TS IIA, Sal B, PNS; within 72 hours, saline containing 0.2% SDS, dialysis, 37°C
endpoint.name: released from NPs (%)
Only the number, expressed in %, is required.

[
  {
    "compound": "CC(C)=CCC[C@](C)(O[C@@H]1O[C@H](CO)[C@@H](O)[C@H](O)[C@H]1O)[C@H]1CC[C@]2(C)[C@@H]1[C@H](O)C[C@@H]1[C@@]3(C)CC[C@H](O)C(C)(C)[C@@H]3[C@@H](O[C@@H]3O[C@H](CO)[C@@H](O)[C@H](O)[C@H]3O)C[C@]12C [Rg1, ginsenoside Rg1]",
    "released from NPs, %": 76.2
  },
  {
    "compound": "Cc1coc2c1C(=O)C(=O)c1c-2ccc2c1CCCC2(C)C",
    "released from NPs, %": 23.6
  }
]

// switching to the query compound
Recorded released from NPs for CC(C)=CCC[C@](C)(O[C@@H]1O[C@H](CO[C@@H]2O[C@H](CO)[C@@H](O)[C@H](O)[C@H]2O)[C@@H](O)[C@H](O)[C@H]1O)[C@H]1CC[C@]2(C)[C@@H]1[C@H](O)C[C@@H]1[C@@]3(C)CC[C@H](O[C@@H]4O[C@H](CO)[C@@H](O)[C@H](O)[C@H]4O[C@@H]4O[C@H](CO)[C@@H](O)[C@H](O)[C@H]4O)C(C)(C)[C@@H]3CC[C@]12C [Rb1, ginsenoside Rb1] , please? 76.0
